- study_system: delF508-CFTR (Homo sapiens, UniProt P13569, DEL508-508)
- Construct: expressed in transfected cells
- Sequence (P13569 with tags, fused parts or gaps DEL508-508): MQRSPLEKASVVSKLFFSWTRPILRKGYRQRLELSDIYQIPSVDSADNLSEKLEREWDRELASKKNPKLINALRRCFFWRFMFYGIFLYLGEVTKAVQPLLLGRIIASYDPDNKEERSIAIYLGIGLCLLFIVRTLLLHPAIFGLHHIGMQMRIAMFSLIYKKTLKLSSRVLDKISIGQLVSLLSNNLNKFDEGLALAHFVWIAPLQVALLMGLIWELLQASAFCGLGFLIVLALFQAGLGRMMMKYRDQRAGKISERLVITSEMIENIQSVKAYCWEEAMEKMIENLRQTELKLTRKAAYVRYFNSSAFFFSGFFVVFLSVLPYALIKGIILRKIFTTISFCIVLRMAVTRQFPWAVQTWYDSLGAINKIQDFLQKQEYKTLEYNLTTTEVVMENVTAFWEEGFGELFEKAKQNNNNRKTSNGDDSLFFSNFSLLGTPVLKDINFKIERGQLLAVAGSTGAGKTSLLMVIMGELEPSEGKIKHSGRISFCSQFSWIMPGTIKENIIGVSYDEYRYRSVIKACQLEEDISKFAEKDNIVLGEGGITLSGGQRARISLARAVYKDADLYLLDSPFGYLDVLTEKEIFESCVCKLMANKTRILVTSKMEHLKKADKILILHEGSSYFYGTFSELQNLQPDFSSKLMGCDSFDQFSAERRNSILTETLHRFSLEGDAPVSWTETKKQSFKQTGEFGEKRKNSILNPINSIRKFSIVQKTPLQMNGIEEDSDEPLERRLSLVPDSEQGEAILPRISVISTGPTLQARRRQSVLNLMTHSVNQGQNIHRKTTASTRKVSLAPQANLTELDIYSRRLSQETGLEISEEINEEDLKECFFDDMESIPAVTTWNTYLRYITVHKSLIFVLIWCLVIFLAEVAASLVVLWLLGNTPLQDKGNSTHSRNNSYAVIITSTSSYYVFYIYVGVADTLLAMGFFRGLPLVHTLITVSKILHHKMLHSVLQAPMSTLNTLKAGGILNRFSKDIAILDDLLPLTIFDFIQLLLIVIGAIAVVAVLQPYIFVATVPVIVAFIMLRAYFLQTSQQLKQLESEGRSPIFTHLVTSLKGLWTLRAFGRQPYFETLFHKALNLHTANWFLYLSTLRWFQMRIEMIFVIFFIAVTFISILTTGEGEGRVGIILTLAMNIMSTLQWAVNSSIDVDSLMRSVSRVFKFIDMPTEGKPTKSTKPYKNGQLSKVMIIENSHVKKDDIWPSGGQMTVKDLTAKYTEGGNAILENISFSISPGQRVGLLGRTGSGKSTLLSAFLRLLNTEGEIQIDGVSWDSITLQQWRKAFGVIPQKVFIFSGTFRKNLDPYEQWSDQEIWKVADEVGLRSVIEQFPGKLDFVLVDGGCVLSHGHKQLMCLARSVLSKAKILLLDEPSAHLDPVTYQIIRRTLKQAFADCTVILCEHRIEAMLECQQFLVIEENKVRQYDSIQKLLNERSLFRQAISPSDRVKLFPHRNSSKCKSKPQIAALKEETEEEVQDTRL
- experiment: Measurement of delF508-CFTR-HRP surface expression in CFBE41o- cells
- Type: cell-based
- cond: HRP-tagged delF508-CFTR in CFBE41o- cells, 24 h with compound, luminescence, 10-point curve, top 10 μM
pEC50: −log10 of the molar value.
reported_property: pEC50

Please review the entries below; each comes with its answer.
{"columns": ["compound", "pEC50"],
 "data": [
  ["Cc1ccccc1-c1nc(NS(=O)(=O)c2cccc(NCCCCC(=O)O)n2)ccc1C(F)(F)F", 5.63],
  ["O=C(O)CC1CCN(c2cccc(S(=O)(=O)Nc3ccc(C(F)(F)F)c(-c4ccccc4C4CCC4)n3)n2)CC1", 5.84],
  ["COCCN(CCCC(=O)O)c1cccc(S(=O)(=O)Nc2ccc(C(F)(F)F)c(-c3ccccc3C)n2)n1", 5.74]
]}

[I] CCc1ccccc1-c1nc(NS(=O)(=O)c2cccc(N3CCCC(CCCC(=O)O)C3)n2)ccc1C(F)(F)F (stereo not shown)
[II] Cc1ccccc1-c1nc(NS(=O)(=O)c2cccc(NC(C(=O)O)C34CC5CC(CC(C5)C3)C4)n2)ccc1C(F)(F)F (stereo not shown)
Query string: Higher pEC50: I or II ? Selection: enter the item's label.
Result string: I
(I: 5.84, II: 5.62)

====

- study_system: delF508-CFTR (Homo sapiens, UniProt P13569, DEL508-508)
- Construct: expressed in transfected cells
- experiment: Measurement of delF508-CFTR-HRP surface expression in CFBE41o- cells
- Format: cell-based
- cond: HRP-tagged delF508-CFTR in CFBE41o- cells, 24 h with compound, luminescence, 10-point curve, top 10 μM
pEC50: −log10 of the molar value.
reported_property: pEC50

These solved cases illustrate the format of a correct answer.
{"columns": ["compound", "result"],
 "data": [
  ["CCc1ccccc1-c1nc(NS(=O)(=O)c2cccc(N3CCC(CC(=O)O)CC3)n2)ccc1C(F)(F)F [Compound 15]", 5.67],
  ["CCc1ccccc1-c1nc(NS(=O)(=O)c2cccc(N3CCC[C@@H](CC(=O)O)C3)n2)ccc1C(F)(F)F [Compound 85]", 5.85],
  ["Cc1ccccc1-c1nc(NS(=O)(=O)c2cccc(N3CCC[C@H](CCC(=O)O)C3)n2)ccc1C(F)(F)F (single isomer, unassigned) [Compound 62]", 5.91],
  ["O=C(O)CC1CCN(c2cccc(S(=O)(=O)Nc3ccc(C(F)(F)F)c(-c4ccccc4C4CC4)n3)n2)C1 (centres unmarked) [Compound 33]", 5.89],
  ["Cc1ccccc1-c1nc(NS(=O)(=O)c2cccc(NCCCC(=O)O)n2)ccc1C(F)(F)F [Compound 36]", 5.53]
]}

[P] CCc1ccc(F)cc1-c1nc(NS(=O)(=O)c2cccc(N(CC)CCCC(=O)O)n2)ccc1C(F)(F)F [Compound 110]
[Q] Cc1c(F)cccc1-c1nc(NS(=O)(=O)c2cccc(N3CCC(C)(CC(=O)O)C3)n2)ccc1C(F)(F)F (centres unmarked) [Compound 54]
[R] CCN(CCC(=O)O)c1cc(S(=O)(=O)Nc2ccc(Cl)c(-c3cc(F)ccc3C)n2)ccn1 [Compound 144]
Query string: Output the entries ranked by pEC50 from maximum down to minimum. Please reply with the labels ordered as requested. Many thanks.
Result string: P, Q, R

[1] CC1(CC(=O)O)CCN(c2cccc(S(=O)(=O)Nc3ccc(C(F)(F)F)c(-c4ccccc4C(C)(C)C)n3)n2)CC1 [Compound 26]
[2] Cc1ccccc1-c1nc(NS(=O)(=O)c2cccc(N(CCCC(=O)O)CC3CC3)n2)ccc1C(F)(F)F [Compound 103]
Query string: In terms of reported pEC50, does 1 or 2 have the smaller number? Which one? Tell me its label.
Result string: 2
(2: 5.84, 1: 6.08)
